Tested on: HMLE_sh_eGFP viability, CellTiter-Glo luminescence, 72 h
Assay: cytotoxicity in HMLE control line with eGFP shRNA, dose response, counter-screen for HMLE_sh_ECad selective toxicity project, cell-based, HMLE_sh_eGFP, luminescence (AID 463074);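 note: counterscreen control line to flag general toxicity for the HMLE_sh_ECad screen; potency for loss of viability as luminescence drops below DMSO wells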
The source made the active and inactive calls.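 Rule for the calls: active = AC50 no more than tenfold above the top dose tested, or full inhibition at every dose with a flat fit (cut at about 19 µM in these data); inconclusive = flat curve fit with inhibition between 30% and 70%, or poor fit; inactive = AC50 more than tenfold above the top dose tested.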
Classes used: yes (1) (active), no (0) (inactive)

C=C(C(=O)c1ccccc1)C(CC(=O)c1ccccc1)c1ccccc1 (stereo unspecified); yes (1)
COc1ccc2cc1Oc1ccc(cc1)C[C@H]1c3c(cc(OC)c4c3Oc3c(ccc5c3[C@H](C2)N(C)CC5)O4)CCN1C; yes (1)
COc1cc(OC)c2cc(C(=O)N/N=C/c3cccc(OC)c3O)[nH]c2c1; yes (1)
COc1ccc(-c2sc3cc(OC)c(OC)cc3c2C#CC2(O)CCCCC2)cc1; yes (1)
C[C@H](CO)N1C[C@H](C)[C@@H](CN(C)S(=O)(=O)c2ccccc2)Oc2ccc(NC(=O)Nc3ccc(C(F)(F)F)cc3)cc2C1=O; yes (1)
CC1CCCN(CCCNC(=O)c2cc3c(Cl)nc4ccccc4c3s2)C1 (stereo unspecified); yes (1)
O=C(/C=C/c1c[nH]c2ccccc12)c1cccc2ccccc12; yes (1)
Cc1nc(NC(=O)c2ccco2)sc1-c1csc(Nc2ccc(Cl)cc2)n1; yes (1)
CCCC(O)(c1ccc(Cl)cc1)C(CN1CCOCC1)c1ccc(Cl)cc1 (stereo unspecified); yes (1)
Cc1ccc2nc(NC(=O)c3cccc(-c4cc5ccccc5oc4=O)c3)sc2c1; no (0)
Cc1onc(-c2c(Cl)cccc2Cl)c1C(=O)N/N=C(\N)COc1ccc(Cl)cc1; yes (1)
CNC(=O)c1cc(Oc2ccc(NC(=O)Nc3ccc(Cl)c(C(F)(F)F)c3)cc2)ccn1; yes (1)
O=C(N/N=C/c1ccc(OC2CSC2)cc1)c1ccccc1; yes (1)
C=CCCC(=O)Nc1nc(C)c(-c2csc(Nc3cc(OC)ccc3OC)n2)s1; yes (1)
CN(C)/C=C(\C=N\OCc1ccc(Cl)cc1Cl)C(=O)Nc1ccc(Cl)c(Cl)c1; yes (1)
COc1ccc(-c2sc3cc4c(cc3c2-c2ccc(OCCN3CCOCC3)cc2)OCO4)cc1; yes (1)
CC(=O)c1ccc(-c2ccc([C@H]3[C@H]4C=CC[C@@H](C)[C@@H]4C(=O)N3Cc3ccccc3)c(F)c2)cc1; yes (1)
c1ccc(CNc2c(-c3cccc(SC4CCCCC4)c3)nc3ccccn23)cc1; yes (1)
C=CCC[C@H](Cc1ccc(F)cc1)C(=O)OC[C@@H](Cc1c[nH]c2ccccc12)NC(=O)[C@@H](CC=C)CC(=O)N(CCO)Cc1ccccc1; yes (1)
Cc1c(NC(=O)c2ccc([N+](=O)[O-])o2)cccc1-c1nc2ncccc2o1; yes (1)
Cc1cccc(-n2ncc(Cl)c(Cl)c2=O)c1; yes (1)
COc1cc(/C=C2\C(=O)ON=C2c2ccc(Cl)cc2)ccc1O; yes (1)
CC(C)(C)OC(=O)[C@H](Cc1ccccc1)NC(=O)c1[nH]cnc1C(=O)Nc1ccc(Cl)cc1; yes (1)
C=C(C)COc1ccc(-c2[nH]ncc2-c2ccc(OC)cc2)c(O)c1; yes (1)
COc1ccc(CNCCC(c2ccc(OC(C)C)cc2)c2ccccc2OC)cc1 (stereo unspecified); yes (1)
CCN1C(=O)/C(=C\c2ccncc2)SC1=Nc1ccc(C)c(C)c1; yes (1)
O=C(COc1ccc(-c2ccccc2)cc1)N/N=C/c1cc(O)ccc1Br; yes (1)
Cn1cnc(Sc2ncnc3nc[nH]c23)c1[N+](=O)[O-]; yes (1)
Cc1cccc(C(=O)N/N=C/c2ccc(OC3CSC3)cc2)c1; yes (1)
CC1(C)Cc2ccccc2/C(=C/C(=O)c2ccccc2)N1; yes (1)
C/C(=C\c1ccc(C(=O)O)cc1)c1ccc2c(c1)C(C)(C)CCC2(C)C; yes (1)
CCCCCCCCOC(=O)C1=C(C)Nc2nnnn2C1c1cccs1 (stereo unspecified); yes (1)
C=C1CCc2c([nH]c3ccc(OCC(C)C)cc23)C1=O; yes (1)
COc1ccc(-c2sc3ccc(N4CCOCC4)cc3c2C#CCCO)cc1; yes (1)
COc1cccc(/C=C/c2nc(C#N)c(NCC(C)C)o2)c1; yes (1)
C[C@@H](CSc1ccc(Br)cc1)CN1CC[C@H](C(C)(C)C)CCC1=O; yes (1)
Cc1ccccc1/C=N/Nc1ccnc2cc(Cl)ccc12; yes (1)
CC1(C)CCC[C@]2(C)[C@H]3Cc4cc(O)ccc4O[C@]3(C)CC[C@@H]12; yes (1)
CSc1ccc2c(c1)C(N1CCN(C)CC1)Cc1ccccc1S2 (stereo unspecified); yes (1)
COc1ccc(CNC(=O)c2c(N)n(CCCN3CCOCC3)c3nc4ccccc4nc23)cc1; yes (1)
CNc1ccccc1C(C)(C)c1cc(-c2cc(C)cc(C)c2)no1; yes (1)
